Where do the numbers come from? From patent US8664379B2.

target: wild-type human cardiac sodium channel, hNav1.5 (late sodium current) (Homo sapiens, UniProt Q14524); assay: Late INa screening assay (PatchXpress whole cell patch clamp); type: cell-based; settings: HEK293, 10 μM test compound; HEK293 cells expressing hNav1.5; late INa generated with 10 μM Tefluthrin (some experiments 50 nM ATX II); read-out: Late INa % blk (10 μM test cmpd)
Sequence (Q14524 whole entry): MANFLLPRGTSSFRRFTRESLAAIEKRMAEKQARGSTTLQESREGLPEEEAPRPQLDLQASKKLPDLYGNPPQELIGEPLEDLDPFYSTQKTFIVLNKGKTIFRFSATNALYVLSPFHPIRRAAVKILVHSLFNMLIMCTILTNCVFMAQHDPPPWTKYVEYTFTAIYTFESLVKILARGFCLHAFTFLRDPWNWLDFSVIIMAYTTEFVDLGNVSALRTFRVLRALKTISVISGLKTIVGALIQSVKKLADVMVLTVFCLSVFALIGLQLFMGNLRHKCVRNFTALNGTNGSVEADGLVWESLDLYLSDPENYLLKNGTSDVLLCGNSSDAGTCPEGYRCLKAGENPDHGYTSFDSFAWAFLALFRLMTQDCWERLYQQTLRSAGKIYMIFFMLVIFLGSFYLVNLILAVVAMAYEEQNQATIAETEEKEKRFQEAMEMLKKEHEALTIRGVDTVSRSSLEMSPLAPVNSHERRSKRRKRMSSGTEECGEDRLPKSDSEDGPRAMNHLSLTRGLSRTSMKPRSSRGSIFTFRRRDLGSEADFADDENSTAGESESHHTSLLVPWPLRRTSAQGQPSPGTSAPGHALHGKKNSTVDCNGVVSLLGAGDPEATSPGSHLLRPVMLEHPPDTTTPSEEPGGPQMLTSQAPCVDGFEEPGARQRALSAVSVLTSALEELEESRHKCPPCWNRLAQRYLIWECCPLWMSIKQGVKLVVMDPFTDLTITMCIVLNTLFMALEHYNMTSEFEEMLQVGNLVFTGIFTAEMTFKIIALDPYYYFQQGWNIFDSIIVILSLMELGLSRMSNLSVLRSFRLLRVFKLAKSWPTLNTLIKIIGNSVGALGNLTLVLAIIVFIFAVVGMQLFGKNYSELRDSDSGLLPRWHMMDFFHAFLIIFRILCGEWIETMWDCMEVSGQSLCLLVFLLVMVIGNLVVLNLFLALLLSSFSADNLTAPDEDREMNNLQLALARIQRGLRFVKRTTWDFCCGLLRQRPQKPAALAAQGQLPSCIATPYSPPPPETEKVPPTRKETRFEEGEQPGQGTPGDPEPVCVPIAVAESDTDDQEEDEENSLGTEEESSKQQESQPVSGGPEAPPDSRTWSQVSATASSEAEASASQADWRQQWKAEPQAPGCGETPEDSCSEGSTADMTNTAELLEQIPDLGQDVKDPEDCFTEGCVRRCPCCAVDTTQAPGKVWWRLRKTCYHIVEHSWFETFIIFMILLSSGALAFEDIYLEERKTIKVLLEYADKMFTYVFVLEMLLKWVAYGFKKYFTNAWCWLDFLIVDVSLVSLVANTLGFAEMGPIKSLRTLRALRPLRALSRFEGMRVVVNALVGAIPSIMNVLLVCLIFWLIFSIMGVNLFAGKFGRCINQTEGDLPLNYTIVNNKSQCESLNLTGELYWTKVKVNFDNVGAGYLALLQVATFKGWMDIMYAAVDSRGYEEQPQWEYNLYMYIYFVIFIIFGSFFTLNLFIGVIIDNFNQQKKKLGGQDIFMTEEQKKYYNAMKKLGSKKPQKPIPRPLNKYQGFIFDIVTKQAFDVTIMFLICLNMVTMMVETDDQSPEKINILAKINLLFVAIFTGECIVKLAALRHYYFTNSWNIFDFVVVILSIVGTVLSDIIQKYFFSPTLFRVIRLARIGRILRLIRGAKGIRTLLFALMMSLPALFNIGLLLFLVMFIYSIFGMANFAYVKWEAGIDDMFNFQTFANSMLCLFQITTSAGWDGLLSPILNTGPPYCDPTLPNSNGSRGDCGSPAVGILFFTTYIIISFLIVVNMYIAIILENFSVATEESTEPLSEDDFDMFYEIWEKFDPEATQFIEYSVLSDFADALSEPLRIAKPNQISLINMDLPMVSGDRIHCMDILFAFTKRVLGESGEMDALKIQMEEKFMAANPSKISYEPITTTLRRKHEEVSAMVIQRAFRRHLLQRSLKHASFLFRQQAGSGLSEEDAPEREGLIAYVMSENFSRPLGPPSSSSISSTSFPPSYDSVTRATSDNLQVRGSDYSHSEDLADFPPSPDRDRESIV
MEASURE: inhibition at 10 µM
Write the figure, then the unit, nothing else.

Task: Tell me the measured inhibition at 10 µM of COc1cc2c(cc1-c1ccc(Cl)cc1)CCC(=O)N2 [Compound 77] , please.
Output: 72%

Task: Can you handle O=C1CCc2cc(-c3ccc(F)cc3F)ccc2N1 [Compound 11] next?
Output: 54%

Task: // same read-out, input: CCOC(=O)CN1C(=O)CCc2cc(-c3ccc(F)c(F)c3)ccc21 [Compound 23]
Output: 33%

Task: Next entry: O=C1CCc2cc(-c3ccccc3F)ccc2N1 [Compound 7]
Output: 52%

Task: Repeat for the following molecule: CC(C)(C)c1nc(CN2C(=O)CCc3cc(-c4ccc(F)cc4)ccc32)no1 [Compound 35]
Output: 69%

====

For each entry below, report its inhibition at 10 µM value.
biological target: wild-type human cardiac sodium channel, hNav1.5 (late sodium current) (Homo sapiens, UniProt Q14524); assay: Late INa screening assay (PatchXpress whole cell patch clamp); type: cell-based; settings: HEK293, 10 μM test compound; HEK293 cells expressing hNav1.5; late INa generated with 10 μM Tefluthrin (some experiments 50 nM ATX II); read-out: Late INa % blk (10 μM test cmpd)
Respond with the bare value in %.

Task: Dear colleague, I am looking for the recorded inhibition at 10 µM of the following molecule: O=C1CCc2cc(-c3ccccc3)ccc2N1 [Compound 4, 6-phenyl-3,4-dihydroquinolin-2(1H)-one]
Output: 48

Task: Entry CC(C)(C)OC(=O)CN1C(=O)CCc2cc(-c3ccc(OC(F)(F)F)cc3)ccc21 [Compound 50] please
Output: 76

Task: For N#Cc1ccc(-c2ccc3c(c2)CCC(=O)N3)cc1 [Compound 5] then?
Output: 30

Task: Another molecule to check: NC(=O)CN1C(=O)CCc2cc(-c3ccc(OC(F)(F)F)cc3)ccc21 [Compound 31]
Output: 26

Task: And for O=C(O)CN1C(=O)CCc2cc(-c3ccc(Cl)cc3)ccc21 [Compound 68] ?
Output: 23

Task: Here is the next molecule: NC(=O)CN1C(=O)CCc2cc(-c3ccc(C(F)(F)F)cc3)ccc21 [Compound 56]
Output: 14

Task: Same read-out for N#Cc1cc(-c2ccc3c(c2)CCC(=O)N3)ccc1F [Compound 12] ?
Output: 27

Task: Could you do the same for CC(C)(C)OC(=O)CN1C(=O)CCc2cc(-c3ccc(Cl)c(C(F)(F)F)c3)ccc21 [Compound 67] , please?
Output: 74

Task: What do we get for O=C1CCc2cc(-c3cccc(C(F)(F)F)c3)ccc2N1 [Compound 13] ?
Output: 70

====

target: wild-type human cardiac sodium channel, hNav1.5 (late sodium current) (Homo sapiens); test: Late INa screening assay (PatchXpress whole cell patch clamp); type: cell-based; details: HEK293, 10 μM test compound; HEK293 cells expressing hNav1.5; late INa generated with 10 μM Tefluthrin (some experiments 50 nM ATX II); read-out: Late INa % blk (10 μM test cmpd)
Provide the reported inhibition at 10 µM of each item.
Form entry: value (%) — number only.

Task: Look up inhibition at 10 µM: CC(O)CN1C(=O)CCc2cc(-c3ccc(OC(F)(F)F)cc3)ccc21 (stereo not drawn) [Compound 89]
Output: 42

Task: // query: O=C(O)c1ccc(CN2C(=O)CCc3cc(-c4ccc(C(F)(F)F)cc4)ccc32)cc1 [Compound 86]
Output: 13

Task: Also Cc1cc(CN2C(=O)CCc3cc(-c4ccc(OC(F)(F)F)cc4)ccc32)no1 [Compound 39] ?
Output: 60
